Reference source: ChEMBL document CHEMBL1275483

# Tested on: Staphylococcus aureus
# experimental protocol: Antimicrobial activity against beta-lactamase producing Staphylococcus aureus SH1000
# Assay type: functional
Where a SMILES comes first, the peptide text is derived from it. Bridges are numbered along the chain shown (N, C = ends). [ ]: non-standard residue; d: D form. The star is where a group is joined. Ileψ(thiazoline)Cys = CC[C@H](C)[C@H](N)C1=N[C@H](C(=O)*)CS1; dOrn = NCCC[C@@H](N)C(=O)O
Entries and their MIC values follow.
Answer as a quantity: numeral, then unit.

Cc1onc(-c2ccccc2)c1C(=O)N[C@@H]1C(=O)N2[C@@H]1SC(C)(C)[C@@H]2C(=O)O : 1 µg/mL
CC[C@H]1OC(=O)[C@H](C)[C@@H](O[C@H]2C[C@@](C)(OC)[C@@H](O)[C@H](C)O2)[C@H](C)[C@@H](O[C@@H]2O[C@H](C)C[C@H](N(C)C)[C@H]2O)[C@](C)(O)C[C@@H](C)C(=O)[C@H](C)[C@@H](O)[C@]1(C)O : 2 µg/mL

Let us examine a further case.
Kindly indicate its recorded MIC. Item: CC[C@H](C)[C@H](N)C1=N[C@H](C(=O)N[C@@H](CC(C)C)C(=O)N[C@H](CCC(=O)O)C(=O)N[C@H](C(=O)N[C@H]2CCCCNC(=O)[C@H](CC(N)=O)NC(=O)[C@@H](CC(=O)O)NC(=O)[C@H](Cc3cnc[nH]3)NC(=O)[C@@H](Cc3ccccc3)NC(=O)[C@H]([C@@H](C)CC)NC(=O)[C@@H](CCCN)NC2=O)[C@@H](C)CC)CS1 [BACITRACIN] ({Ileψ(thiazoline)Cys}-L[dE]IK[dOrn]I[dF]H[dD]N; lactam 4-C)
2 µg/mL

====

# Test system: Staphylococcus aureus
# experimental protocol: Antimicrobial activity against beta-lactamase producing Staphylococcus aureus SH1000
# Assay type: functional
Entries and their MIC values follow.
# unit: µg/mL | format: bare number

O=C(N[C@H](CO)[C@H](O)c1ccc([N+](=O)[O-])cc1)C(Cl)Cl [CHLORAMPHENICOL] : 0.5
CN[C@@H]1[C@H](O[C@H]2[C@H](O[C@H]3[C@H](O)[C@@H](O)[C@H](N=C(N)N)[C@@H](O)[C@@H]3N=C(N)N)O[C@@H](C)[C@]2(O)C=O)O[C@@H](CO)[C@H](O)[C@H]1O [STREPTOMYCIN] : 1.5
CO[C@H]1/C=C/O[C@@]2(C)Oc3c(C)c(O)c4c(O)c(c(/C=N/N5CCN(C)CC5)c(O)c4c3C2=O)NC(=O)/C(C)=C\C=C\[C@H](C)[C@H](O)[C@@H](C)[C@@H](O)[C@@H](C)[C@H](OC(C)=O)[C@@H]1C [RIFAMPIN] : 0.05
N[C@@H]1CONC1=O [CYCLOSERINE] : 1

Let us examine a further case.
Kindly indicate its recorded MIC. Item: CN(C)[C@@H]1C(O)=C(C(N)=O)C(=O)[C@@]2(O)C(O)=C3C(=O)c4c(O)cccc4[C@@](C)(O)[C@H]3C[C@@H]12 [TETRACYCLINE]
0.5
